These measurements were taken from patent US20170362324A1.

I'd appreciate it if you could supply VN adhesion inhibition, αvβ5-BaF3 (IC50, nM) values for the items below.
Target: human αvβ5 expressed on BaF3 cells (stably transfected with human αv and β5 subunits) (human, UniProt P06756 31-1048; P18084 24-799)
Sequence (P06756 31-1048 limits assumed, chain 1 of 2): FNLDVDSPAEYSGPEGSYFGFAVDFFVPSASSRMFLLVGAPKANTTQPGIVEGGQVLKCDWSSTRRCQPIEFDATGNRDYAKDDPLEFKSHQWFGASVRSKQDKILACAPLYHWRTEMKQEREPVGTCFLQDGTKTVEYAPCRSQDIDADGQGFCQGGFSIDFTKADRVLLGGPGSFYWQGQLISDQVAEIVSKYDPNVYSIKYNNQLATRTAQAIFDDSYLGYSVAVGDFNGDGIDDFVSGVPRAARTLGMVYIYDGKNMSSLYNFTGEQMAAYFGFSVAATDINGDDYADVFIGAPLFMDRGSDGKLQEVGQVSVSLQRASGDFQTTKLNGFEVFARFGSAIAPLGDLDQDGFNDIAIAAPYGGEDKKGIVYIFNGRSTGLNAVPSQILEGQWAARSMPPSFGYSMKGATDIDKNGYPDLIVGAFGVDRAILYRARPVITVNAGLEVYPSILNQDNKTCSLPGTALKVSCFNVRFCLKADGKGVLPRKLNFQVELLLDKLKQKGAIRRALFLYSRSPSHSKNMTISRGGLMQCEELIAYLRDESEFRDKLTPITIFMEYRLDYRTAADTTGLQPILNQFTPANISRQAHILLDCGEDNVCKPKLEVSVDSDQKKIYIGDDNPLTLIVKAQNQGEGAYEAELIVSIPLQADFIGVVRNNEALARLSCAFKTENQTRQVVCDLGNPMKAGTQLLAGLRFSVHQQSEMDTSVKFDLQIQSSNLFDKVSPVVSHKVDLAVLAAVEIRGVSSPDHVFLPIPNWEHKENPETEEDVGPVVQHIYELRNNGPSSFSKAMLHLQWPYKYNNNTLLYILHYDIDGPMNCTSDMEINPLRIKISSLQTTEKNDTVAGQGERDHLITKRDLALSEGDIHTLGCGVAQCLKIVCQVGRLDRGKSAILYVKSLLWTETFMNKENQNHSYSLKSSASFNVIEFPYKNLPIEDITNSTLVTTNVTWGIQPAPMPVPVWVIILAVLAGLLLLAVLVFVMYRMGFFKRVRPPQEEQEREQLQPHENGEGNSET
Sequence (P18084 24-799 limits assumed, chain 2 of 2): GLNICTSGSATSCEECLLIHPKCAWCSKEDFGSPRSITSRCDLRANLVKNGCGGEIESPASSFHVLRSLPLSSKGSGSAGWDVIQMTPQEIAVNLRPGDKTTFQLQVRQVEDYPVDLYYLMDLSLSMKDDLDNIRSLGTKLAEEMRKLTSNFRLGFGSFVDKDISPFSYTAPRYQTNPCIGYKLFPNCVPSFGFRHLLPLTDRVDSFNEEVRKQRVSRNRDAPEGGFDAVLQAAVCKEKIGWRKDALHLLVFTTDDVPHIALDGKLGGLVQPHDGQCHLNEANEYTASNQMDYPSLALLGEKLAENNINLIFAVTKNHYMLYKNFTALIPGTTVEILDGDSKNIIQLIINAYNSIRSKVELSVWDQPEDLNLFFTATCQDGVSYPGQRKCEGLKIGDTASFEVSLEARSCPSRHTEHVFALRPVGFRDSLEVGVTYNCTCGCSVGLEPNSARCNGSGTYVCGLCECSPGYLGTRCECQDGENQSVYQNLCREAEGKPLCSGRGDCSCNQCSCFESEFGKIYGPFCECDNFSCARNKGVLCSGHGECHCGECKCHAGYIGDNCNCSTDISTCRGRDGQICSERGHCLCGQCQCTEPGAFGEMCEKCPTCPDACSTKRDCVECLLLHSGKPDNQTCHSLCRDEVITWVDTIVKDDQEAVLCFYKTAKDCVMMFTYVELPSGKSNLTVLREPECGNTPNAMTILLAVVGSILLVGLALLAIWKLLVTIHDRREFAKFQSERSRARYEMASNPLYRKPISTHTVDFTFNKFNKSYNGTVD
Experiment: cell-based or functional assay
Note: unit nM is implicit; provide only the numeric part.

Find the recorded VN adhesion inhibition, αvβ5-BaF3 (IC50, nM) belonging to VH0/VL3 Agly-hIgG1(T299A) (antibody, V domains shown, also called H0/L3) VH: EVQLVESGGGLVKPGGSLRLSCAASGYTFTSYWMHWVRQAPGKGLEWVGAIYPGNSDTSYNQKFKGRFTISRDDSKNTLYLQMNSLKTEDTAVYYCTTTTYGYDWFAYWGQGTLVTVSS VL: DIQMTQSPSSLTVSVGDRVTMSCKSSQSVLYSSNQKNYLAWYQQKPGKSPKLLIYWASTRESGVPDRFTGSGSGTDFTLTISSVQPEDFATYYCHQYLSSLTFGAGTKLEIK and report it.
494

Then VH1/VL2 Agly-hIgG1(T299A) (antibody, V domains shown, also called H1/L2) VH: EVQVVESGGGLVKPGGSLRLSCAASGYTFTSYWMHWVRQAPGKGLEWVGAIYPGNSDTSYNQKFKGRFTISADTSKNTLYLQMNSLKTEDTAVYYCTTTTYGYDWFAYWGQGTLVTVSS VL: NIQMTQSPSSLSASVGDRVTMSCKSSQSVLYSSNQKNYLAWYQQKPGKSPKLLIYWASTRESGVPDRFTGSGSGTDFTLTISSLQPEDFATYYCHQYLSSLTFGQGTKLEIK ?
1730

Then VH1/VL1 Agly-hIgG1(T299A) (antibody, V domains shown, also called H1/L1) VH: EVQVVESGGGLVKPGGSLRLSCAASGYTFTSYWMHWVRQAPGKGLEWVGAIYPGNSDTSYNQKFKGRFTISADTSKNTLYLQMNSLKTEDTAVYYCTTTTYGYDWFAYWGQGTLVTVSS VL: DIQMTQSPSSLSASVGDRVTMTCKSSQSVLYSSNQKNYLAWYQQKPGKAPKLLIYWASTRESGVPDRFSGSGSGTDFTLTISSLQPEDFATYYCHQYLSSLTFGQGTKLEIK ?
2520

Then VH2/VL2 Agly-hIgG1(T299A) (antibody, V domains shown, also called H2/L2 (Agly-IgG1)) VH: EVQVVQSGGGLVKPGESLRLSCAASGYTFTSYWMHWVKQAPGKGLEWVGAIYPGNSDTSYNQKFKGKFTISADTSSNTAYLQMNSLKTEDTAVYYCTTTTYGYDWFAYWGQGTLVTVSS VL: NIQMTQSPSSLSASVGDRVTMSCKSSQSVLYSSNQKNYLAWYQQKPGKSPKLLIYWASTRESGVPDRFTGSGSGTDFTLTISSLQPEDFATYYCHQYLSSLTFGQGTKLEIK ?
292

Then VH5/VL0 Agly-hIgG1(T299A) (antibody, V domains shown, also called H5/L0) VH: EVQVQQSGGGLVKPGGSLRLSCKASGYTFTSYWMHWVKQAPGKGLEWVGAIYPGNSDTSYNQKFKGKATLSAVTSPNTAYLQMNSLKTEDTAVYYCTTTTYGYDWFAYWGQGTLVTVSS VL: DIQMTQSPSSVSASVGDRVTITCKSSQSVLYSSNQKNYLAWYQQKPGKAPKLLIYWASTRESGVPSRFSGSGSGTDFTLTISSLQPEDFATYYCHQYLSSLTFGQGTKVEIK ?
218

Then VH4/VL2 Agly-hIgG1(T299A) (antibody, V domains shown, also called H4/L2 (Agly-IgG1)) VH: EVQVVQSGGGLVKPGESLRLSCKASGYTFTSYWMHWVKQAPGKGLEWVGAIYPGNSDTSYNQKFKGKFTISADTSPNTAYLQMNSLKTEDTAVYYCTTTTYGYDWFAYWGQGTLVTVSS VL: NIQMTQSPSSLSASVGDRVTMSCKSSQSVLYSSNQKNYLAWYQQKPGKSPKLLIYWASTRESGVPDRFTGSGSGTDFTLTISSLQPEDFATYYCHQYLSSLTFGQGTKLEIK ?
71.8

Then VH5/VL2 Agly-hIgG1(T299A) (antibody, V domains shown, also called H5/L2 (Agly-IgG1)) VH: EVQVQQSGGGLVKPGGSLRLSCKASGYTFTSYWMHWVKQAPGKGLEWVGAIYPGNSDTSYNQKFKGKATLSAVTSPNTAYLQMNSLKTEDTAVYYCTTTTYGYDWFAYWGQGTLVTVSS VL: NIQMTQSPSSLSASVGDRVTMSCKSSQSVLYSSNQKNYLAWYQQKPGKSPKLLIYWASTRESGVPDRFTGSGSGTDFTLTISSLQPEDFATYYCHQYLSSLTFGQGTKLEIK ?
83.2

Then VH4/VL1 Agly-hIgG1(T299A) (antibody, V domains shown, also called H4/L1) VH: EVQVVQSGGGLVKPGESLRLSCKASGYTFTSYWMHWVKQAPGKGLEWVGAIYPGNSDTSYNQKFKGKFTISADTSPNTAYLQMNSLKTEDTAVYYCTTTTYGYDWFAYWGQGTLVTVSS VL: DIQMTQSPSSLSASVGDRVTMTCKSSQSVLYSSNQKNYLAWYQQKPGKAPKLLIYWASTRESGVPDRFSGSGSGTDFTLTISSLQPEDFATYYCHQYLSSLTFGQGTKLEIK ?
59.8

Then VH4/VL3 Agly-hIgG1(T299A) (antibody, V domains shown, also called H4/L3) VH: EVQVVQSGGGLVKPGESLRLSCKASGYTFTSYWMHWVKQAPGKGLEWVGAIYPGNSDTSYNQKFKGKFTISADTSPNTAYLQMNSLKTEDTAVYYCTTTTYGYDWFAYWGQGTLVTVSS VL: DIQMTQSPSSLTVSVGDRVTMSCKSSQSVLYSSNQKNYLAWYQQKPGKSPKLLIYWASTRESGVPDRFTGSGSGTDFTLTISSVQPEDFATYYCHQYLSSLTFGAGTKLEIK ?
64.8

Then VH2/VL1 Agly-hIgG1(T299A) (antibody, V domains shown, also called H2/L1) VH: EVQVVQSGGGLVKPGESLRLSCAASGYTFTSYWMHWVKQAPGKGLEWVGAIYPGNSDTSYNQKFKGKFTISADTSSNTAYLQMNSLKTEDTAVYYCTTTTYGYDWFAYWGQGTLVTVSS VL: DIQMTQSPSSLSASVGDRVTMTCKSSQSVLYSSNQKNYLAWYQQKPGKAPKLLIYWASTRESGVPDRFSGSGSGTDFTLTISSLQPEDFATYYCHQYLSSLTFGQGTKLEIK ?
318
